Listed below: EC50 values for each entry.
- target: hS1P3 (Homo sapiens)
- Construct: receptor stably expressed in CHO-K1 cells
- Sequence (Q99500 whole entry): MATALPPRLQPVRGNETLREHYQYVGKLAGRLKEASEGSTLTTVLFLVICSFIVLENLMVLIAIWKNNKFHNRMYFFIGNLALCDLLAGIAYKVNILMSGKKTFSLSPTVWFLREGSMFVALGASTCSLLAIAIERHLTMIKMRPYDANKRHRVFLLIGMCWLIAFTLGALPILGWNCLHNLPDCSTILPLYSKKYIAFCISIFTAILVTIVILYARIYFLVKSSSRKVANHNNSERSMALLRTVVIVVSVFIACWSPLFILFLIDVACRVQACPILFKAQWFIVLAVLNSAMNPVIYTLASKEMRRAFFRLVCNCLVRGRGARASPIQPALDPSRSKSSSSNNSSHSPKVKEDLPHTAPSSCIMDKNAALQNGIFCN
- measurement_protocol: […]GTPgammaS binding, CHO-K1 membranes

Example results:
molecule	EC50
CC(C)Oc1ccc(-c2nc(-c3cccc4c3CCC4=O)no2)cc1C#N [Ozanimod(K)]	> 10 µM
CCc1cc(/C(C)=N/OCc2ccc(C3CCCCC3)c(C(F)(F)F)c2)ccc1CN1CC(C(=O)O)C1 [Siponimod]	> 10 µM
CC(C)Oc1ccc(-c2nc(-c3cccc4c3CC[C@@H]4NCCO)no2)cc1C#N [Ozanimod]	> 6 µM

Specify EC50 for O=C(O)C[C@H]1CCc2c1[nH]c1ccc(OCc3ccc(C4CCCC4)c(C(F)(F)F)c3)cc21 [Etrasimod] and stop.
6.05 µM

Source listed as paper PMC11705451.
